Value source: the Immune Epitope Database (IEDB)

- TESTED TARGET: HLA-A*02:01
- TEST NAME: IEDB peptide-MHC binding, purified MHC/competitive/radioactivity; filed as Kd, often an IC50 or EC50 that approximates it; bounds were set here for any values at or beyond the usual limits of such assays
- CONDITION LABEL: source organism: Hepatitis C virus (isolate Taiwan)
REPORTED ENDPOINT: Kd (µM)

>>> assay_value("GLRDLAVAV")
1.47

###

- TESTED TARGET: HLA-A*02:01
- TEST NAME: IEDB peptide-MHC binding, purified MHC/competitive/radioactivity; filed as Kd, often an IC50 or EC50 that approximates it; bounds were set here for any values at or beyond the usual limits of such assays
- CONDITION LABEL: source organism: Hepatitis B virus subtype ayw
Kd for assorted sequences
REPORTED ENDPOINT: Kd

>>> assay_value("CLTFGRETV")
"≥ 50 µM"
>>> assay_value("ILCWGELMTL")
"0.026 µM"
>>> assay_value("NMGLKFRQL")
"≥ 50 µM"
>>> assay_value("HLSLRGLPV")
"12.5 µM"
>>> assay_value("RMRGTFSAPL")
"0.046 µM"
>>> assay_value("PLSYQHFRRL")
"≥ 50 µM"
>>> assay_value("LLYQTFGRKL")
"≥ 50 µM"
>>> assay_value("NMGLKFRQLL")
"≥ 50 µM"
